Recorded Ki, one value per entry.
biological target: Caspase-1 (Homo sapiens); assay: Caspase-1 enzyme inhibition (Ki); assay type: biochemical
Where a SMILES comes first, the peptide text is derived from it. [ ]: non-standard residue; d: D form. 4Abz = Nc1ccc(C(=O)O)cc1

Past entries and their recorded results:
>  <COMPOUND>
CC(C)[C@H](NC(=O)c1ccc2c(c1)OCO2)C(=O)N1CCC[C@H]1C(=O)N[C@H](C=O)CC(=O)O [Example 5r]

>  <Ki>
10 to 1000 nM

$$$$
>  <COMPOUND>
CC(C)[C@H](NC(=O)C1(c2ccccc2)CCCC1)C(=O)N1CCC[C@H]1C(=O)N[C@H](C=O)CC(=O)O [Example 5t]

>  <Ki>
> 1000 nM

$$$$
>  <COMPOUND>
Cc1onc(-c2c(F)cccc2Cl)c1C(=O)N[C@H](C(=O)N1CCC[C@H]1C(=O)N[C@H](C=O)CC(=O)O)C(C)C [Example 5ae]

>  <Ki>
10 to 1000 nM

$$$$
>  <COMPOUND>
CC(C)[C@H](NC(=O)c1cc(Cl)c(O)c(Cl)c1)C(=O)N1CCC[C@H]1C(=O)N[C@H](C=O)CC(=O)O [Example 5m]

>  <Ki>
< 10 nM

$$$$
>  <COMPOUND>
COc1cc(C(=O)N[C@H](C(=O)N2CCC[C@H]2C(=O)N[C@H](C=O)CC(=O)O)C(C)C)cc(OC)c1O [Example 5n]

>  <Ki>
< 10 nM

$$$$
>  <COMPOUND>
CC(C)[C@H](NC(=O)c1cccc2c1-c1ccccc1C2=O)C(=O)N1CCC[C@H]1C(=O)N[C@H](C=O)CC(=O)O [Example 5k]

>  <Ki>
< 10 nM

$$$$
>  <COMPOUND>
CC(=O)N[C@H](Cc1c[nH]c2ccccc12)C(=O)N[C@H](C(=O)N1CCC[C@H]1C(=O)N[C@H](C=O)CC(=O)O)C(C)C [Example 5ah] (Ac-[dW]VPD-aldehyde)

>  <Ki>
10 to 1000 nM

$$$$
>  <COMPOUND>
CC(C)[C@H](NC(=O)Cc1ccccc1OCc1ccccc1)C(=O)N1CCC[C@H]1C(=O)N[C@H](C=O)CC(=O)O [Example 5ab]

>  <Ki>
10 to 1000 nM

$$$$

Please supply the value of reported Ki for the item CC(C)[C@H](NC(=O)c1ccc2c(c1)S(=O)(=O)c1ccccc1C2=O)C(=O)N1CCC[C@H]1C(=O)N[C@H](C=O)CC(=O)O [Example 5ai]
< 10 nM

Answer with the recorded Ki for the compound listed here: COc1ccc(C(=O)N[C@H](C(=O)N2CCC[C@H]2C(=O)N[C@H](C=O)CC(=O)O)C(C)C)cc1OCc1ccccc1 [Example 5aa]
< 10 nM

Please supply the value of reported Ki for the item COc1ccc2cc([C@H](C)C(=O)N[C@H](C(=O)N3CCC[C@H]3C(=O)N[C@H](C=O)CC(=O)O)C(C)C)ccc2c1 [Example 5ag]
< 10 nM

# return recorded Ki for entry CC(C)[C@H](NC(=O)C(c1ccccc1)c1ccccc1)C(=O)N1CCC[C@H]1C(=O)N[C@H](C=O)CC(=O)O [Example 5q]
10 to 1000 nM

Recall and state the measured Ki for COc1ccc(CCC(=O)N[C@H](C(=O)N2CCC[C@H]2C(=O)N[C@H](C=O)CC(=O)O)C(C)C)cc1OC [Example 5o] .
10 to 1000 nM

Look up and state reported Ki for CC(C)[C@H](NC(=O)c1ccccc1C(=O)c1ccccc1)C(=O)N1CCC[C@H]1C(=O)N[C@H](C=O)CC(=O)O [Example 5u]
10 to 1000 nM

Supply Ki value. Item: CC(=O)Nc1ccc(C(=O)N[C@H](C(=O)N2CCC[C@H]2C(=O)N[C@H](C=O)CC(=O)O)C(C)C)cc1 [Example 5a] (Ac-[4Abz]VPD-aldehyde)
10 to 1000 nM

---

molecular target: Caspase-1 (Homo sapiens, UniProt P29466); test: Caspase-1 enzyme inhibition (Ki); format: biochemical; conditions: substrate Suc-YVAD-pNA 80 μM, 37° C., pH 7.5
Sequence (P29466 120-297 limits assumed): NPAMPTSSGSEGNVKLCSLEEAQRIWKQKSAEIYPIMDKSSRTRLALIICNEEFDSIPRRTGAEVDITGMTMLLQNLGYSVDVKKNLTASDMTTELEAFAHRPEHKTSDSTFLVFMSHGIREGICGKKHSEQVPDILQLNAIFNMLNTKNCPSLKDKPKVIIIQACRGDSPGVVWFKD
Sequence (P29466 317-404 limits assumed): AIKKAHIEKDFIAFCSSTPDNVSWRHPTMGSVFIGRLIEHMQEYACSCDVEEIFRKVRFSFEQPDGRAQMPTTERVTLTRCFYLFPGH
pKi: −log10 of the molar value.
MEASURED METRIC: pKi

Some solved cases for reference:
>  <COMPOUND>
Cc1c(Cl)cccc1C(=O)N[C@@H](C)C(=O)N1CCC[C@H]1C(=O)N[C@H](C=O)CC(=O)O [Example 7ao]

>  <MEASURED METRIC>
pKi

>  <RESULT>
6.00 to 8.00

$$$$
>  <COMPOUND>
C[C@H](NC(=O)c1ccc(NC(=O)C(C)(C)C)c(Cl)c1)C(=O)N1CCC[C@H]1C(=O)N[C@H](C=O)CC(=O)O [Example 122s]

>  <MEASURED METRIC>
pKi

>  <RESULT>
6.00 to 8.00

$$$$

Pending compound:
Fetch value of pKi on Caspase-1 (Homo sapiens, UniProt P29466) for CC(C)[C@H](NC(=O)c1ccccc1-c1ccc(C(F)(F)F)cc1)C(=O)N1CCC[C@H]1C(=O)N[C@H](C=O)CC(=O)O [Example 5ba] .
> 8.00

---

Listing of entries alongside the reported Ki.
biological target: Caspase-1 (Homo sapiens); test: Caspase-1 enzyme inhibition (Ki); type: biochemical; details: substrate Suc-YVAD-pNA 80 μM, 37° C., pH 7.5

>  <COMPOUND>
COc1c(C(=O)NC(C)C(=O)N2CC(F)(F)CC2C(=O)NC(C=O)CC(=O)O)ccc(NC(C)=O)c1Cl (stereo not shown) [Example 123c]

>  <Ki>
10 to 1000 nM

$$$$
>  <COMPOUND>
COc1ccc2cc([C@H](C)C(=O)N[C@H](C(=O)N3CCC[C@H]3C(=O)N[C@H](C=O)CC(=O)O)C(C)C)ccc2c1 [Example 5ag]

>  <Ki>
< 10 nM

$$$$
>  <COMPOUND>
C[C@H](NC(=O)c1cccc(Cl)c1)C(=O)N1CCC[C@H]1C(=O)N[C@H](C=O)CC(=O)O [Example 7ah]

>  <Ki>
< 10 nM

$$$$

Then there is this compound:
# return recorded Ki for input CCCCCCc1ccc(C(=O)N[C@H](C(=O)N2CCC[C@H]2C(=O)N[C@H](C=O)CC(=O)O)C(C)C)cc1 [Example 5z]
< 10 nM

---

Target: Caspase-1 (Homo sapiens)
Experiment: Caspase-1 enzyme inhibition (Ki)
Type: biochemical
Details: substrate Suc-YVAD-pNA 80 μM, 37° C., pH 7.5
Method: Ki values for test compounds with the various caspases were obtained by the method of Margolin et al. (J. Biol. Chem., 272 pp. 7223-7228 (1997)). […] Reaction rates were measured at 37° C. either by following the time dependant increase in absorbance at 405 nm (for the pNA substrates) or in fluorescence (Ex 390, Em 460) (for the AMC substrates). […]
*1 amine or outer side, *2 acyl side, *3 side chain or, on linkers, in order; H or OH if unused. Where a SMILES comes first, the peptide text is derived from it. [ ]: non-standard residue; d: D form. The star is where a group is joined. CO = O=C([*:1])[*:2]; NHPh = c1ccc(N*)cc1
Measured Ki, listed per entry.

// solved cases for Ki follow
>  <COMPOUND>
COCC(=O)N1CCN(C(=O)[C@H](C)NC(=O)c2ccc(N)c(Cl)c2)[C@H](C(=O)N[C@H](C=O)CC(=O)O)C1 [Example 18f]

>  <RESULT>
10 to 1000 nM

$$$$
>  <COMPOUND>
CC(=O)N[C@H](Cc1c[nH]c2ccccc12)C(=O)N[C@H](C(=O)N1CCC[C@H]1C(=O)N[C@H](C=O)CC(=O)O)C(C)C [Example 5ah] (Ac-[dW]VPD-aldehyde)

>  <RESULT>
10 to 1000 nM

$$$$
>  <COMPOUND>
CNc1ccc(C(=O)N[C@@H](C)C(=O)N2CCC[C@H]2C(=O)N[C@H](C=O)CC(=O)O)cc1Cl

>  <RESULT>
< 10 nM

$$$$
>  <COMPOUND>
COc1cc(C(=O)N[C@H](C(=O)N2CCC[C@H]2C(=O)N[C@H](C=O)CC(=O)O)C(C)C)cc(OC)c1O

>  <RESULT>
< 10 nM

$$$$
>  <COMPOUND>
C[C@H](NC(=O)Nc1ccccc1)C(=O)N1CCC[C@H]1C(=O)N[C@H](C=O)CC(=O)O [Example 7af] ({NHPh-CO}-Ala-Pro-Asp-aldehyde)

>  <RESULT>
10 to 1000 nM

$$$$

Supply Ki value. Item: C[C@H](NC(=O)c1cc(Cl)c(O)c(Cl)c1)C(=O)N1CC(F)(F)C[C@H]1C(=O)N[C@H](C=O)CC(=O)O [Example 27g]
< 10 nM
